test system: HEK-293T-ACE2^h cells; test: Cytotoxicity by MTT assay; type: cell-based, human; settings: 4 h incubation
ATTRIBUTE_MEASURED: CC0 (maximum nontoxic concentration)

> print(dat)
                                 mol.smiles  obs.value
1  C=CCc1cc(-c2cc(CC=C)c3oc(=O)n(Cc4nnc(-c5ccccc5F)o4)c3c2)c2oc(=O)n(Cc3nnc(-c4ccccc4F)o3)c2c1    >100 µM
2  C=CCc1cc(-c2cc(CC=C)c3oc(=O)n(Cc4nnc(-c5ccc(OC)cc5)o4)c3c2)c2oc(=O)n(Cc3nnc(-c4ccc(OC)cc4)o3)c2c1    >100 µM
3  C=CCc1cc(-c2cc(CC=C)c3oc(=O)n(Cc4nnc(-c5ccccc5)o4)c3c2)c2oc(=O)n(Cc3nnc(-c4ccccc4)o3)c2c1    >100 µM
4  C=CCc1cc(-c2cc(CC=C)c3oc(=O)n(Cc4nnc(-c5cccc(F)c5)o4)c3c2)c2oc(=O)n(Cc3nnc(-c4cccc(F)c4)o3)c2c1    >100 µM
5  C=CCc1cc(-c2cc(CC=C)c3oc(=O)n(Cc4nnc(-c5cccc(Br)c5)o4)c3c2)c2oc(=O)n(Cc3nnc(-c4cccc(Br)c4)o3)c2c1      50 µM

# credit: paper PMC8471451
